test system: Escherichia coli DH5alpha
Quantity Name: MIC (µM)
Give the value in µM but do not write µM after it.

* CC[C@H](C)[C@H](N)C(=O)N[C@@H](CC(C)C)C(=O)N[C@@H](C)C(=O)N[C@@H](Cc1c[nH]c2ccccc12)C(=O)N[C@@H](CCCCN)C(=O)N[C@@H](Cc1c[nH]c2ccccc12)C(=O)N[C@@H](C)C(=O)N[C@@H](Cc1c[nH]c2ccccc12)C(=O)N[C@@H](Cc1c[nH]c2ccccc12)C(=O)N1CCC[C@H]1C(=O)N[C@@H](Cc1c[nH]c2ccccc12)C(=O)N[C@@H](CCCN=C(N)N)C(=O)N[C@@H](CCCN=C(N)N)C(N)=O | 15
* CC[C@H](C)[C@H](NC(=O)[C@H](Cc1cnc[nH]1)NC(=O)[C@H](C)NC(=O)[C@H](CCSC)NC(=O)[C@H](CC(N)=O)NC(=O)[C@H](CCCCN)NC(=O)[C@H](CCCCN)NC(=O)[C@@H](NC(=O)[C@@H](NC(=O)[C@H](CCCCN)NC(=O)[C@H](C)NC(=O)[C@H](Cc1ccccc1)NC(=O)[C@H](CC(C)C)NC(=O)[C@H](CCCCN)NC(=O)[C@@H]1CCCN1C(=O)[C@H](CC(C)C)NC(=O)[C@H](Cc1ccccc1)NC(=O)[C@@H](N)CS)[C@@H](C)CC)[C@@H](C)O)C(=O)N[C@@H](CCCN=C(N)N)C(=O)O | 10

Turning to the following molecule.
-- ask If you can, please state the reported MIC value of "CC(=O)N[C@@H](CCCN=C(N)N)C(=O)N[C@@H](Cc1c[nH]c2ccccc12)C(=O)N[C@H](C(=O)N[C@@H](Cc1c[nH]c2ccccc12)C(=O)N[C@@H](CCCN=C(N)N)C(=O)NCC(=O)N[C@@H](CO)C(=O)NCC(=O)N[C@@H](CCCN=C(N)N)C(=O)N[C@@H](Cc1c[nH]c2ccccc12)C(=O)N[C@H](C(=O)N[C@@H](Cc1c[nH]c2ccccc12)C(=O)N[C@@H](CCCN=C(N)N)C(N)=O)[C@@H](C)O)[C@@H](C)O" .
-- reply 25

* * *

test system: Escherichia coli ATCC 25922; assay: ≥ marks a high value that may be exact or a test limit, other limits are often not marked, values filed in µg/mL are converted to µM
Quantity Name: MIC (µM)
Give the value in µM but do not write µM after it.

// solved cases for MIC follow
* CC(C)C[C@H](NC(=O)[C@H](CCCN=C(N)N)NC(=O)[C@H](Cc1c[nH]c2ccccc12)NC(=O)[C@H](CCCN=C(N)N)NC(=O)[C@@H](NC(=O)[C@H](Cc1c[nH]c2ccccc12)NC(=O)[C@H](Cc1c[nH]c2ccccc12)NC(=O)[C@H](CCCN=C(N)N)NC(=O)[C@H](CC(C)C)NC(=O)[C@H](CCCN=C(N)N)NC(=O)[C@@H](N)CCCN=C(N)N)[C@@H](C)O)C(=O)N[C@@H](CCCCN)C(N)=O | 4
* CC(C)[C@H](NC(=O)[C@H](CCCCN)NC(=O)[C@@H](N)Cc1ccccc1)C(=O)N[C@H](C(=O)N[C@@H](Cc1c[nH]c2ccccc12)C(=O)N[C@@H](CCCCN)C(=O)N[C@H](C(=O)N[C@@H](CCCCN)C(=O)N[C@@H](Cc1c[nH]c2ccccc12)C(=O)N[C@@H](Cc1c[nH]c2ccccc12)C(=O)N[C@@H](CCCCN)C(=O)NCC(N)=O)[C@@H](C)O)[C@@H](C)O | 4.38
* CC[C@H](C)[C@H](NC(=O)[C@H](CCCN=C(N)N)NC(=O)[C@H](CCC(N)=O)NC(=O)[C@@H](NC(=O)[C@H](CC(N)=O)NC(=O)[C@H](CCCN=C(N)N)NC(=O)[C@H](CCCCN)NC(=O)[C@@H](N)Cc1ccccc1)C(C)C)C(=O)N[C@@H](CCCCN)C(=O)N[C@@H](CC(=O)O)C(=O)N[C@@H](Cc1ccccc1)C(=O)N[C@@H](CC(C)C)C(=O)N[C@@H](CCCN=C(N)N)C(=O)O | 20

Turning to the following compound.
-- ask Any idea what MIC came out for "CC[C@H](C)[C@H](NC(=O)[C@@H](N)CCCCN)C(=O)N[C@@H](Cc1c[nH]c2ccccc12)C(=O)N[C@@H](Cc1ccccc1)C(=O)N[C@@H](CCC(N)=O)C(=O)N[C@@H](CC(N)=O)C(=O)N[C@@H](CCCN=C(N)N)C(=O)N[C@@H](CCCN=C(N)N)C(=O)N[C@@H](CCSC)C(=O)N[C@@H](CCCCN)C(=O)N[C@@H](Cc1c[nH]c2ccccc12)C(=O)N[C@@H](CCCCN)C(=O)N[C@@H](CCCCN)C(N)=O" on Escherichia coli ATCC 25922?
-- reply 128
